tested-target: KOP receptor (Homo sapiens, UniProt P41145)
Sequence (P41145 whole entry): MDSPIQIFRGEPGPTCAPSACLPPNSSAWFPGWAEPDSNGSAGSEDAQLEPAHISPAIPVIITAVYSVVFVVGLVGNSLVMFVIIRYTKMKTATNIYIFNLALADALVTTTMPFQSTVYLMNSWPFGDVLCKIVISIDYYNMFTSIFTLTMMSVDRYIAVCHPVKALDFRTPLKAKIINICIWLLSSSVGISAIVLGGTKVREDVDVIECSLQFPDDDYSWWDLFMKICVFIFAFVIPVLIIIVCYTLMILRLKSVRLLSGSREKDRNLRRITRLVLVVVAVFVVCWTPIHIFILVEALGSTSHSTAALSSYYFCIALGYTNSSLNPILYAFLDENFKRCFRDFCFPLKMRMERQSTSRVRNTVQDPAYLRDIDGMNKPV
experimental-details: biochemical
Form field: [35S]GTPγS KOP % stim (one value per entry).
Hi! Could you send only the number? It should be in %, unit omitted.

[ask] Entry `C[C@H]1CN(C[C@H]2Cc3ccccc3CN2)CC[C@@]1(C)c1cccc(O)c1` has what [35S]GTPγS KOP % stim?
[reply] 0

[ask] Query: [35S]GTPγS KOP % stim; subject: CC(C)[C@@H](CN1CC[C@@](C)(c2cccc(O)c2)[C@@H](C)C1)NC(=O)[C@H]1Cc2ccc(O)cc2CN1 [JDTic, reference compound]
[reply] 0

[ask] Recorded [35S]GTPγS KOP % stim for `CC(C)[C@@H](CN1CCC(c2cccc(O)c2)CC1)NC(=O)[C@H]1Cc2ccccc2CN1` , please?
[reply] 0

[ask] Fill in the blank: the reported [35S]GTPγS KOP % stim of `C[C@H]1CN(C2CCCCCCC2)CC[C@@]1(C)c1cccc(O)c1` is ____.
[reply] 0

[ask] Given the entry `CC(C)[C@@H](CN1CCC(c2cccc(O)c2)CC1)NC(=O)[C@H]1Cc2ccc(O)cc2CN1` , report its measured [35S]GTPγS KOP % stim.
[reply] 0

Read the next record carefully.
[ask] Item under review: `CC(C)[C@@H](CN1CCC(c2ccccc2)CC1)NC(=O)[C@H]1Cc2ccc(O)cc2CN1` . Reported [35S]GTPγS KOP % stim?
[reply] 72.3

###

tested-target: NOP receptor (Homo sapiens)
experimental-endpoint: Ki (nM)
Give the value in nM but do not write nM after it.

[ask] Could you share what Ki was measured for `CC(C)[C@@H](CN1CCC(c2ccccc2)CC1)NC(=O)[C@H]1Cc2ccc(O)cc2CN1` , tested on NOP receptor (Homo sapiens)?
[reply] 10.9

###

tested-target: KOP receptor (Homo sapiens, UniProt P41145)
experimental-details: biochemical
experimental-endpoint: EC50

[ask] Fill in: EC50 of `CC(C)[C@@H](CN1CCC(c2cccc(O)c2)CC1)NC(=O)[C@H]1Cc2ccc(O)cc2CN1` is ___
[reply] > 10 µM

[ask] Can you share its EC50? I mean this compound: `C[C@H]1CN(C[C@H]2Cc3ccccc3CN2)CC[C@@]1(C)c1cccc(O)c1`
[reply] > 10 µM

[ask] May I ask what EC50 has been recorded for `CC(C)[C@@H](CN1CCC(c2ccccc2)CC1)NC(=O)[C@H]1Cc2ccc(O)cc2CN1` ?
[reply] 0.408 µM

[ask] Please look up its EC50: `C[C@H]1CN(C2CCCCCCC2)CC[C@@]1(C)c1cccc(O)c1`
[reply] > 10 µM

Turning now to a further compound:
[ask] # lookup: EC50 of `CC(C)[C@@H](CN1CCC(c2cccc(O)c2)CC1)NC(=O)[C@H]1Cc2ccccc2CN1`
[reply] > 10 µM

###

tested-target: NOP receptor (Homo sapiens, UniProt P41146)
Sequence (P41146 whole entry): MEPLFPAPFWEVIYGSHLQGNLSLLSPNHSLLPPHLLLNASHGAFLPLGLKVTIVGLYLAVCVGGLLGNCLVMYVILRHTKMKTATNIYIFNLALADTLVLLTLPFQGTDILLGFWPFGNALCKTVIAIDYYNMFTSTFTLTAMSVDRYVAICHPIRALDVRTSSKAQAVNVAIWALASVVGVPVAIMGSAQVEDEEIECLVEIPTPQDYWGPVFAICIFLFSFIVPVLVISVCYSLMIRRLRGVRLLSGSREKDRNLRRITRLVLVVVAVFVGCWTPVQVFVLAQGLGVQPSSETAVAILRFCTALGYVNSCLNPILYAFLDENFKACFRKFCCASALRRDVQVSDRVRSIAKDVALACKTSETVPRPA
experimental-details: [35S]GTPγS binding stimulation
Format: biochemical
Entries and their measured EC50 follow.

[ask] Fill blank: measured EC50 of the compound C[C@H]1CN(C[C@H]2Cc3ccccc3CN2)CC[C@@]1(C)c1cccc(O)c1 [Compound 5] is ____.
[reply] > 10 µM

[ask] Any idea what EC50 was measured for CC(C)[C@@H](CN1CCC(c2cccc(O)c2)CC1)NC(=O)[C@H]1Cc2ccccc2CN1 [Compound 7] ?
[reply] > 10 µM

[ask] // query EC50 value for entry CC(C)[C@@H](CN1CCC(c2ccccc2)CC1)NC(=O)[C@H]1Cc2ccc(O)cc2CN1 [Compound 8]
[reply] 0.0533 µM

Field: next compound
[ask] # lookup: EC50 of CC(C)[C@@H](CN1CC[C@@](C)(c2cccc(O)c2)[C@@H](C)C1)NC(=O)[C@H]1Cc2ccc(O)cc2CN1 [JDTic, reference compound]
[reply] > 10 µM

Data provenance: paper PMC4401318
